- Tested on: Voltage-gated inwardly rectifying potassium channel KCNH2 (Homo sapiens, UniProt Q12809)
- Sequence (Q12809 whole entry): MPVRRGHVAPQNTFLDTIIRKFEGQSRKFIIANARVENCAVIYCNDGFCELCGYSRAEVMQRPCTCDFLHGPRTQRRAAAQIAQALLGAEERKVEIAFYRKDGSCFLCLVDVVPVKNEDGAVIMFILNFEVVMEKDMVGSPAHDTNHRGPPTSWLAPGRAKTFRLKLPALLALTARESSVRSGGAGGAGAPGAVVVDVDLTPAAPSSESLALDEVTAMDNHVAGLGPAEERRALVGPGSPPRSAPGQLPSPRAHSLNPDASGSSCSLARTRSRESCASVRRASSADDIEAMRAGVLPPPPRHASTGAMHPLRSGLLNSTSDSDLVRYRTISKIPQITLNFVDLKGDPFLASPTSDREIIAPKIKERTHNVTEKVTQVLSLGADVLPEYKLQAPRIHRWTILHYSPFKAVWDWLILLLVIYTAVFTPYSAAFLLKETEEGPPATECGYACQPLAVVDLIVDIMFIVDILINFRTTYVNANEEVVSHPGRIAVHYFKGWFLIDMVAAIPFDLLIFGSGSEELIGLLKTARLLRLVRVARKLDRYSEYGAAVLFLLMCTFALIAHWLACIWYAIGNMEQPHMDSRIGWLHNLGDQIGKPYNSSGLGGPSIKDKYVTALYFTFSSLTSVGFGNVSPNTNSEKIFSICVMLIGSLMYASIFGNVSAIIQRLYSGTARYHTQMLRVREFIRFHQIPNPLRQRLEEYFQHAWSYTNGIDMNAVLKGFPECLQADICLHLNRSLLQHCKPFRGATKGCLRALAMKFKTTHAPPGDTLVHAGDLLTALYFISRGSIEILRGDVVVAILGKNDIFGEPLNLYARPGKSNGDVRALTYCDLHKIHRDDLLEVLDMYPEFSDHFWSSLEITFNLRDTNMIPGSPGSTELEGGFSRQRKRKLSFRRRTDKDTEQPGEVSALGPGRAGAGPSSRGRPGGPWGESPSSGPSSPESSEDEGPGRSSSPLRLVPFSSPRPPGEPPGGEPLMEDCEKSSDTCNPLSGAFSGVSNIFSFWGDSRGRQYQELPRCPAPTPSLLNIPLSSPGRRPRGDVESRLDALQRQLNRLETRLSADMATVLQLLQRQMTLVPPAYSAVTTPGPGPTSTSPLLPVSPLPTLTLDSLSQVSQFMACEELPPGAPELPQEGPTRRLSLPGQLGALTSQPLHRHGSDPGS
- Assay procedure: Compounds were solubilised to 10 mM in DMSO and diluted in HBPS to […]. 6-Point concentration-response curves were generated using serial dilutions from the top test concentration. Electrophysiological recordings are made from a Chinese Hamster Ovary cell line stably expressing the full-length ion channel. Single cell ionic currents are measured in whole-cell configuration at room temperature. The internal solution for hERG is buffered to pH 7.3, and the external solution is buffered to pH 7.4. The test pulse was applied according to voltage protocol. Compounds were incubated for 2 min to allow stabilization of the parameters. Concentration-response curves were generated by cumulative addition of compound with concentrations low to high. In all cases, steady-state inhibition was achieved before the next concentration of compound was added. IC50 values or % of inhibition at top test concentration is obtained. The assay has been performed by Concept Life Sciences Ltd.
- Assay type: toxicity, cell-based, Cricetulus griseus, CHO
pIC50: −log10 of the molar value.
Measure name: pIC50

Field pIC50 (entry CC(C)[C@@H](Nc1ncnc2[nH]c(-c3cnn(C)c3C#N)cc12)c1ccc2c(n1)OCCO2 ) reads 5.00

Field pIC50 (entry CC(C)[C@H](Nc1ncnc2[nH]c(-c3cnn(C)c3C#N)cc12)c1ccc2c(n1)OCCO2 ) reads 4.96

Field pIC50 (entry C[C@H](C(=O)O)[C@@H](NC(=O)c1ncnc2[nH]ccc12)c1ccc(Br)cc1 ) reads < 4.52

Field pIC50 (entry CNCc1cc(-c2cc3c(N[C@@H](c4ccc5c(c4)S(=O)(=O)CCC5)C(C)C)ncnc3[nH]2)co1 ) reads < 4.52

Field pIC50 (entry COc1ccc([C@H](Cc2nnn[nH]2)NC(=O)c2ncnc3[nH]ccc23)cc1 ) reads < 4.52

Field pIC50 (entry CC(C)[C@H](Nc1ncnc2[nH]ccc12)c1ccc2c(c1)S(=O)(=O)CCC2 ) reads < 4.52

Field pIC50 (entry CNC(=O)Cn1cc(-c2cc3c(N[C@@H](c4ccc5c(c4)S(=O)(=O)CCC5)C(C)C)ncnc3[nH]2)cn1 ) reads < 4.52

Field pIC50 (entry Cn1ncc(-c2cc3c(N[C@@H](c4ccc5c(n4)OCCO5)C(C)(C)C)ncnc3[nH]2)c1C#N ) reads 4.71

Field pIC50 (entry CC(C)[C@@H](Nc1ncnc2[nH]c(C(=O)N[C@@H]3CCN(C)C3)cc12)c1ccc2c(c1)S(=O)(=O)CCC2 ) reads < 4.52

This collection of values is drawn from ChEMBL document CHEMBL5441442.
